- System: Plasmodium falciparum
- assay comment: GSK_TCMDC: Inhibition of Plasmodium falciparum 3D7 in whole red blood cells, using parasite LDH activity as an index of growth. Test compounds present at 2uM
- Format: functional
observable: Inhibition (%)
One number for each entry, in %.

Below are worked cases with known answers.
[
  {
    "compound": "Fc1ccc(CNc2ncc(-c3ccsc3)c(-c3nccs3)n2)cc1",
    "units of measure": "%",
    "Inhibition": 94
  },
  {
    "compound": "COc1cc(C(C)C)ccc1N1CCN(CCCCNC(=O)c2ccc(NC(=O)c3ccc(Cl)cc3)cc2)CC1",
    "units of measure": "%",
    "Inhibition": 98
  }
]

Please go through the list and note Inhibition for each compound.
1. CCC(=O)N[C@@H]1CN[C@@H](C#Cc2cc3c(Nc4ccc(OCc5cccc(F)c5)c(Cl)c4)ncnc3s2)C1
2. Cc1ccccc1OCCCc1c(C)nc(N)nc1N
3. CN(C)Cc1cccc(CNC(=O)c2sccc2OCc2ccc(Cl)cc2)c1
4. COc1cc2c(cc1OC)CN(CCc1ccc(NC(=O)c3cc4cc(Cl)ccc4[nH]3)cc1)CC2
5. O=C(Nc1cccc(F)c1)N(Cc1ccc(-c2cccc(CN3CCNCC3)c2)cc1)C1CCN(Cc2ccccc2)CC1.O=C(O)C(F)(F)F
6. COc1cc2c(cc1S(=O)(=O)c1ccc(NC(=O)Nc3ccc(F)cc3)cc1)CCN(C)CC2.Cl

**Result**
1. 82
2. 97
3. 90
4. 90
5. 97
6. 99

Please go through the list and note Inhibition for each compound.
1. Cc1ccc(S(=O)(=O)N2CCN(C(=O)c3cc(-c4ccccc4)n[nH]3)CC2)cc1
2. O=C(Nc1cccc(C(F)(F)F)c1)Nc1nc2ccc([N+](=O)[O-])cc2s1

**Result**
1: 91; 2: 100

* * *

I'd appreciate it if you could supply Inhibition values for the items below.
- Tested on: Plasmodium falciparum
- assay comment: GSK_TCMDC: Inhibition of Plasmodium falciparum Dd2 in whole red blood cells, using parasite LDH activity as an index of growth. Test compounds present at 2uM
- Type: functional
Answers are plain numbers, in %.

Below are worked cases with known answers.
[
  {
    "molecule": "CC(C)(C)c1ccc(CN2CCC(CNC(=O)c3cc(-c4cccc(F)c4)cs3)C2)cc1.O=C(O)C(F)(F)F (stereo unspecified)",
    "study system": "Plasmodium falciparum",
    "Inhibition, %": 55
  },
  {
    "molecule": "CN1CCN(c2ccc(-c3cccc(NC(=O)c4ccc5ccccc5c4)c3)nn2)CC1",
    "study system": "Plasmodium falciparum",
    "Inhibition, %": 26
  },
  {
    "molecule": "O=C(N[C@@H](Cc1ccccc1)C(=O)NCCN1CCOCC1)c1ccc(O)c(-c2ccc(Cl)c(Cl)c2)c1",
    "study system": "Plasmodium falciparum",
    "Inhibition, %": 31
  }
]

Please go through the list and note Inhibition for each molecule.
1. Cc1cc(C(=O)NCc2ccc(-c3c(C)noc3C)cc2)n(-c2ccccc2)n1
2. Cc1cccc2nc(-c3ccc(-c4cccc(CN5CCC(CCN6CCCCC6)CC5)c4)s3)[nH]c12.O=C(O)C(F)(F)F

**Result**
90
100

* * *

- System: Plasmodium falciparum
- assay comment: GSK_TCMDC: Inhibition of Plasmodium falciparum Dd2 in whole red blood cells, using parasite LDH activity as an index of growth. Test compounds present at 2uM
- Format: functional
observable: Inhibition (%)
Numbers only, in %.

Please go through the list and note Inhibition for each compound.
1. Cc1ccc(F)c(C(=O)Nc2cccc(-c3nn4ccccc4c3-c3ccnc(Nc4cccc(F)c4)n3)c2)c1F
2. COc1ccc(CC2(c3ccc(F)cc3)N=C(N)N(CCCc3cccnc3)C2=O)cc1.O=C(O)C(F)(F)F (centres undefined)
3. CCC[C@@H]([C@@H](Cc1ccc(C)s1)C(=O)N[C@@H](CNC(C)=O)C(=O)Nc1nccs1)N(O)C=O
4. Cc1cccc2nc(-c3ccc(-c4ccc(NC(=O)NCc5cccc(F)c5)cc4)cc3)[nH]c12
5. COc1ccc(CNCCCCCCNCCc2ccc(Cl)cc2)cc1OC.Cl

**Result**
1: 60; 2: 97; 3: 96; 4: 12; 5: 0

Please go through the list and note Inhibition for each compound.
1. O=C(Nc1cccc(C(F)(F)F)c1)c1cccc2nc(C(F)(F)F)[nH]c12
2. CCc1ccc(Cc2cnc3nc(N)nc(N)c3c2C)cc1CC

**Result**
1. 98
2. 0

Please go through the list and note Inhibition for each compound.
1. Cc1cc(N2CCCC2=O)ccc1-c1ccc(C(=O)N2CCC(Oc3cccc(Cl)c3)CC2)cc1
2. CC(=O)Nc1ccc(C(=O)Nc2ccc(-c3csc(-c4nc5ccccc5[nH]4)c3)cc2)cn1

**Result**
1: 98; 2: 0

Hey, just so you know, these numbers are from ChEMBL document CHEMBL1157539.
